Entry source: patent US9187525B2

# TARGET DESC: T1, natriuretic peptide receptor-B (human)
# T1 chain: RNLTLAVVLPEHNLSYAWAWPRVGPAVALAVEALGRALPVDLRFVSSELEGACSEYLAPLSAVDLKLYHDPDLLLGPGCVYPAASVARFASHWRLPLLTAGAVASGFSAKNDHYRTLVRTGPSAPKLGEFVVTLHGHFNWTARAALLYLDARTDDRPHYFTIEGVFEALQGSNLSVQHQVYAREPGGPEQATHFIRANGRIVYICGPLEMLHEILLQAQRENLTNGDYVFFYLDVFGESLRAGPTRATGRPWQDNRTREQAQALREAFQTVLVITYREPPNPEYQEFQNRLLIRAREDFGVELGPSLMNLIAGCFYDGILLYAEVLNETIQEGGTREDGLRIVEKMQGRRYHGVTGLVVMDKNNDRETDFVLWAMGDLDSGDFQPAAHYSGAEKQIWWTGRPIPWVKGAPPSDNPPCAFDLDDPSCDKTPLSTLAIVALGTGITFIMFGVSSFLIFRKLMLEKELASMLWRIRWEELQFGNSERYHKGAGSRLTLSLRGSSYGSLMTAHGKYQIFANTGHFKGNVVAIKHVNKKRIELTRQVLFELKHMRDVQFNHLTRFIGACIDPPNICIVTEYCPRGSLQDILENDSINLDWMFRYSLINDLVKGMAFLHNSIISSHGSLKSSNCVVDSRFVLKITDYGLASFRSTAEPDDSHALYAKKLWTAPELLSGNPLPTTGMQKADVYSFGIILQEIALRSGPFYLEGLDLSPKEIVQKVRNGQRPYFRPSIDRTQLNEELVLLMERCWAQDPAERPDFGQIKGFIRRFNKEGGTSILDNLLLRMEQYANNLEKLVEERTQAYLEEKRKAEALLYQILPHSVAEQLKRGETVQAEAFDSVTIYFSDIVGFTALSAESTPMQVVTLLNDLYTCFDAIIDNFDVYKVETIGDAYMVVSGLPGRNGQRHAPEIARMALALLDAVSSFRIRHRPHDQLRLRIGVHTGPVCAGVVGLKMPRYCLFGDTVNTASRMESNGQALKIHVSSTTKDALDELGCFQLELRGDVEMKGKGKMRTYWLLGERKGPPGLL
# ASSAY METHOD TEXT: cell-based or functional assay
Numbered stars: 1 amine (or outer) side, 2 acyl side, 3 side chain; on linkers, the order of the positions; unused ones are H or OH. Square brackets hold non-standard residues; d marks the D form. Ends that are not written are not given here. Pro(trans-4-NH2) = O=C([C@@H]1C[C@@H](N[*:3])CN1[*:1])[*:2]; Sni = (S)-nipecotic acid, O=C([C@H]1CCCN([*:1])C1)[*:2]; Egg = 2-Amino-3-piperidin-4-yl-propionic acid; Hyp = O=C(O)[C@@H]1C[C@@H](O)CN1; NMeL = CN[C@@H](CC(C)C)C(=O)O; Occ = octanoic acid
PROPERTY LABEL: EC50 group, cGMP in GTM-3 cells

Reference set, count: 2
* [Occ][Sni]F[dL]L[Pro(trans-4-NH2)][NMeL]DPI-NH2 [JAL-1559] | ≤ 1 µM
* [Occ][dA]F[dL]L[Hyp][NMeL]TRI-NH2 [JAL-1334] | ≤ 5 µM

Request: Would you kindly share the measured EC50 group, cGMP in GTM-3 cells for [Occ][dA]F[Egg]L[Hyp][NMeL]DRI-NH2 [JAL-1337] ?
Response: ≤ 5 µM
